molecular target: Neuronal acetylcholine receptor subunit alpha-7 (Homo sapiens, UniProt P36544); test: Partial agonist activity at human alpha7 nAChR expressed as xenopus laevis oocytes assessed as increase in receptor desensitization by measuring fold change in maximum response (Imax) measured after 120 secs by two-electrode voltage-clamp electrophysiology method relative to acetylcholine; format: cell-based; conditions: Oocyte, filed as partial agonist, time 120.0 sec
Sequence (P36544 whole entry): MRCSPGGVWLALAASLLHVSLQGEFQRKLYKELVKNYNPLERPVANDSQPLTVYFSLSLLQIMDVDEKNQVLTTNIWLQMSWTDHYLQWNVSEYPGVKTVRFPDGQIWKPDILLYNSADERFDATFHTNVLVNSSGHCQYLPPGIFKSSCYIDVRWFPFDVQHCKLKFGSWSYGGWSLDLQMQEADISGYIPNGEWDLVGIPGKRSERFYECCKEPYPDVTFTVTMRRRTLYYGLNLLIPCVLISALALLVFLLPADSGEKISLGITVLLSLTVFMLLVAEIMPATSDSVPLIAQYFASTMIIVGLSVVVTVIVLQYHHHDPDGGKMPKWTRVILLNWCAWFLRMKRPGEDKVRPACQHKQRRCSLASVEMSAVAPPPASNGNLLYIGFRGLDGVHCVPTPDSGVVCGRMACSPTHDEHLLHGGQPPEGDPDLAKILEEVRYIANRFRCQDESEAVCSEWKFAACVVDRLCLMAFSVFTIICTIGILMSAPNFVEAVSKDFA
PARAMETER: fold change (FC)
Keep it simple and answer with nothing but the number.

Request: Look up fold change (FC): CC[N+]1(C)CCN(c2ccc(C(=O)Nc3cccc(C)n3)cc2)CC1.[I-]
Result: 0.4

Request: Follow-up item: CC[N+]1(CC)CCN(c2ccc(-n3cccn3)cc2)CC1
Result: 0.088

Request: Follow-up item: CC[N+]1(CC)CCN(c2ccc(C(=O)Nc3cccc(C)c3)cc2)CC1
Result: 0.6

Request: Follow-up item: CC[N+]1(CC)CCN(c2ccc(-c3ncco3)cc2)CC1
Result: 0.12

Request: Follow-up item: CC[N+]1(CC)CCN(c2ccc(C(N)=O)cc2)CC1
Result: 0.34

###

target: Neuronal acetylcholine receptor subunit alpha-7 (Homo sapiens); assay: Agonist activity at alpha7 nAChR (unknown origin)
PARAMETER: EC50 (µM)
Write down the numeric answer in µM and omit the unit.

Request: Look up EC50: CC[N+]1(CC)CCN(c2ccc(C(=O)Nc3cccc(C)n3)cc2)CC1.[I-]
Result: 6.4

These measurements were taken from ChEMBL document CHEMBL5506053.
